Test system: C. albicans (ATCC 10231)
Experiment: In vitro antifungal CFU assay
Type: cell-based, Candida albicans
Settings: peptide 0.064 mg/mL + ZnCl2 (0.9:1), 3 h, pH 5.4; per 0.1 mL
Residues, ends and D or L forms follow the SMILES beside them.
measurementType: mean CFU number ± S.D. (CFU)
Express your answer in CFU, writing the number without its unit.

For the compound CC[C@H](C)[C@H](NC(=O)[C@H](C)NC(=O)[C@@H](NC(C)=O)C(C)C)C(=O)N[C@@H](C)C(=O)N[C@@H](CC(C)C)C(=O)N[C@@H](CCCCN)C(=O)N[C@@H](C)C(=O)N[C@@H](C)C(=O)N[C@@H](Cc1c[nH]cn1)C(=O)N[C@@H](Cc1ccc(O)cc1)C(=O)N[C@@H](Cc1c[nH]cn1)C(=O)N[C@H](C(=O)N[C@@H](Cc1c[nH]cn1)C(=O)N[C@@H](CCCCN)C(=O)N[C@@H](CCC(=O)O)C(=O)O)[C@@H](C)O [L1, Ac-VAIALKAAHYHTHKE] (Ac-VAIALKAAHYHTHKE-OH) , give its reported mean CFU number ± S.D..
88

* * *

Tested on: E. coli (ATCC 25922)
Test: In vitro anti-E. coli CFU assay
Format: cell-based, Escherichia coli
Details: peptide 0.032 mg/mL + CuCl2 (0.9:1), 3 h, pH 5.4; per 0.1 mL
Residues, ends and D or L forms follow the SMILES beside them.
As shown below, each of these compounds has a reported mean CFU number ± S.D. value.
Express your answer in CFU, writing the number without its unit.

compound	numericValue
CC[C@H](C)[C@H](NC(=O)[C@H](C)NC(=O)[C@@H](NC(C)=O)C(C)C)C(=O)N[C@@H](C)C(=O)N[C@@H](CC(C)C)C(=O)N[C@@H](CCCCN)C(=O)N[C@@H](C)C(=O)N[C@@H](C)C(=O)N[C@@H](Cc1c[nH]cn1)C(=O)N[C@@H](Cc1ccc(O)cc1)C(=O)N[C@@H](Cc1c[nH]cn1)C(=O)N[C@H](C(=O)N[C@@H](Cc1c[nH]cn1)C(=O)N[C@@H](CCCCN)C(=O)N[C@@H](CCC(=O)O)C(N)=O)[C@@H](C)O [L2, Ac-VAIALKAAHYHTHKE-NH2] (Ac-VAIALKAAHYHTHKE-NH2)	467
CC[C@H](C)[C@H](NC(=O)[C@H](C)NC(=O)[C@@H](N)C(C)C)C(=O)N[C@@H](C)C(=O)N[C@@H](CC(C)C)C(=O)N[C@@H](CCCCN)C(=O)N[C@@H](C)C(=O)N[C@@H](C)C(=O)N[C@@H](Cc1c[nH]cn1)C(=O)N[C@@H](Cc1ccc(O)cc1)C(=O)N[C@@H](Cc1c[nH]cn1)C(=O)N[C@H](C(=O)N[C@@H](Cc1c[nH]cn1)C(=O)N[C@@H](CCCCN)C(=O)N[C@@H](CCC(=O)O)C(=O)O)[C@@H](C)O [WT, VAIALKAAHYHTHKE, reference compound] (H-VAIALKAAHYHTHKE-OH)	505

For E. coli (ATCC 25922), give mean CFU number ± S.D. of the listed compound: CC[C@H](C)[C@H](NC(=O)[C@H](C)NC(=O)[C@@H](NC(C)=O)C(C)C)C(=O)N[C@@H](C)C(=O)N[C@@H](CC(C)C)C(=O)N[C@@H](CCCCN)C(=O)N[C@@H](C)C(=O)N[C@@H](C)C(=O)N[C@@H](Cc1c[nH]cn1)C(=O)N[C@@H](Cc1ccc(O)cc1)C(=O)N[C@@H](Cc1c[nH]cn1)C(=O)N[C@H](C(=O)N[C@@H](Cc1c[nH]cn1)C(=O)N[C@@H](CCCCN)C(=O)N[C@@H](CCC(=O)O)C(=O)O)[C@@H](C)O [L1, Ac-VAIALKAAHYHTHKE] (Ac-VAIALKAAHYHTHKE-OH)
372

For E. coli (ATCC 25922), give mean CFU number ± S.D. of the listed compound: CC[C@H](C)[C@H](NC(=O)[C@H](C)NC(=O)[C@@H](N)C(C)C)C(=O)N[C@@H](C)C(=O)N[C@@H](CC(C)C)C(=O)N[C@@H](CCCCN)C(=O)N[C@@H](C)C(=O)N[C@@H](C)C(=O)N[C@@H](Cc1c[nH]cn1)C(=O)N[C@@H](Cc1ccc(O)cc1)C(=O)N[C@@H](Cc1c[nH]cn1)C(=O)N[C@H](C(=O)N[C@@H](Cc1c[nH]cn1)C(=O)N[C@@H](CCCCN)C(=O)N[C@@H](CCC(=O)O)C(N)=O)[C@@H](C)O [L3, VAIALKAAHYHTHKE-NH2] (H-VAIALKAAHYHTHKE-NH2)
509
